Each item that follows carries a reported melting point.
Structures can show the parent of a compound that is named as a salt.

These solved cases illustrate the format of a correct answer.
Measured melting point of Cc1ccc([C@H]2CCC[C@@H](c3ccc(C)cc3)N2C(=N)N)cc1 (as salt: mesylate) [Example 1] : 183 to 185 °C

Form: compound = CC(C)c1ccc([C@H]2CCC[C@@H](c3ccc(C(C)C)cc3)N2C(=N)N)cc1.Cl [Example 2] ; melting point = 197 to 199 °C

Summary for this compound, `Cl.N=C(Nc1ccccc1)N1[C@@H](c2ccccc2)CCC[C@H]1c1ccccc1` : melting point is 82 to 84 °C

Sample `Cc1ccc([C@H]2CCC[C@H](c3ccc(C)cc3)N2C(=N)N)cc1.Cl` ; melting point observed: 120 °C

Please turn your attention to the following entry.
Item: `Cl.N=C(N)N1[C@@H](c2ccccc2)CC[C@H]1c1ccccc1` | melting point: 242 to 244 °C
